Reported TGI by item:
- System: SNB-75 CNS
- experiment summary: NCI tumour cell line growth inhibition, 48 h

Solved cases (3 shown):
>>> print(df.to_string())
                                   compound  readout  reported
0               O=C(NN=C1CCCCC1)Nc1ccccc1Cl      TGI   29.6 µM
1  CCOC(OCC)C(CCc1ccccc1)c1c(N)nc(N)[nH]c1=O (stereo not given)      TGI  > 100 µM
2  CC1SC2=NC3=C(c4ccccc4C3=O)C(c3ccc(Br)cc3)N2C1=O (stereo not given)      TGI   96.9 µM

// next item, TGI requested
For SNB-75 CNS, provide TGI of "COc1cc(NCC(C#N)C#N)ccc1N=Nc1ccc([N+](=O)[O-])cc1" please.
> 100 µM

* * *

- Test system: UACC-62 melanoma
- experiment summary: NCI tumour cell line growth inhibition, 48 h
Reported TGI by item:
Give the number; µM is assumed, so skip it.

compound	TGI / µM
Cc1nnc(N)nc1/C=C\c1cccs1	49.4

// next item, TGI requested
I would be grateful if you could share the reported TGI for O=C1C2C(C(=O)[N]1[Hg][c]1ccccc1)C1(Cl)C(Cl)=C(Cl)C2(Cl)C1(Cl)Cl (centres undefined) .
2.72

* * *

- Tested on: SN12C renal
- experiment summary: NCI tumour cell line growth inhibition, 48 h
readout: GI50

Solved cases (3 shown):
In [3]: df
Out[3]:
                                        mol  reported
0      NC(=O)Nc1ccc2ncnc(Nc3ccc(Cl)cc3)c2c1   11.4 µM
1  O=C(O)c1cn(C2CC2)c2cc(N3CCN(S(=O)(=O)c4ccc(Cl)c(Cl)c4)CC3)c(F)cc2c1=O   2.97 µM
2  Cc1cc(N(CCCNc2ccnc3cc(Cl)ccc23)Cc2cccs2)nc(Cl)n1   5.91 µM

For SN12C renal, provide GI50 of "CCN(CC)c1ccc(/C=C/C(=O)c2cccc(NS(C)(=O)=O)c2)cc1" please.
6.69 µM

Here is the next molecule: "O=C(Cc1ccc(/C=C/C(=O)c2ncc[nH]2)cc1)Nc1ccc(Br)cc1"
2.59 µM

* * *

- Test system: NCI-H23 lung
- experiment summary: NCI tumour cell line growth inhibition, 48 h
Use 40 µM as the dividing line for TGI, with the line itself on the Yes side and lower values as No.

Answered examples (3):
                                   compound  label_value
0  CC(=O)Nc1ccc(-c2nnc(SCC(=O)Nc3ccccc3[N+](=O)[O-])o2)cc1          Yes
1  O=C1C=CC2(O[C@@H](Cc3ccccc3)[C@H](Cc3ccccc3)O2)C(SC(=O)c2ccccc2)C1 (stereo not given in full)           No
2  O=C1OCC2=C1C(c1cccc(F)c1)c1cc3c(cc1N2CCO)OCCO3 (stereo not given)          Yes

Now consider a different compound.
Dear colleague, could you confirm whether CC(=O)OC1CCC2(C)C(CCC3C2CCC2(C)C(C4=CC(=O)OC4)CCC32)C1 (stereo not given) has TGI at or above 40 µM?
No

* * *

- Tested on: DU-145 prostate
- experiment summary: NCI tumour cell line growth inhibition, 48 h
readout: GI50

Solved cases (3 shown):
                                   molecule   reported
0  COc1cc2c(cc1OCCCCCCNC(=O)c1cc3ccccc3[nH]1)N=CC1CCCN1C2=O (centres undefined)    21.6 µM
1  NCCCn1c2c(c3ccc([N+](=O)[O-])cc3c1=O)C(=O)c1cc3c(cc1-2)OCO3  < 0.01 µM
2  CC(=O)OC1CCC2(C)C(CCC3C2CCC2(C)C(C4=CC(=O)OC4)CCC32)C1 (centres undefined)    14.7 µM

// next item, GI50 requested
I would be grateful if you could share the reported GI50 for "CC[C@](O)(C(=O)O)c1cc2n(c(=O)c1CO)Cc1cc3ccccc3nc1-2" .
< 0.0025 µM
